test system: NCI-H23; assay: NCI tumour cell line growth inhibition, 48 h
The source made the active and inactive calls. Rule as the data show it: active = GI50 up to about 1.1 µM and inactive = higher.
Entries annotated with measured GI50

MOLECULE	SYSTEM	GI50
COc1c(C)c(C/C=C(\C)CCCCO)c(OC)c(OC)c1OC	NCI-H23	> 100 µM (inactive)
C#C[C@]1(O)[C@@H](CO)O[C@@H](n2ccc(=O)[nH]c2=O)[C@@H]1O	NCI-H23	0.428 µM (active)
COc1cc2c3c(n(C)c(=O)c2cc1OC)-c1cc2c(cc1/C3=C/CCCCBr)OCO2	NCI-H23	24.8 µM (inactive)
N#CC(NC12CC3CC(CC(C3)C1)C2)c1ccccc1C(F)(F)F (stereo not given)	NCI-H23	> 100 µM (inactive)
O=C1CN(c2ccc(Cl)cc2)C(=O)CN1NCNN1CC(=O)N(c2ccc(Cl)cc2)CC1=O	NCI-H23	> 100 µM (inactive)
